// note: pKi values for HPK1 (Homo sapiens (Human)) were reported in different studies
pKi: −log10 of the molar value.

Under HPK1 (Homo sapiens (Human)), report pKi for CCN(CCO)C(=O)c1cccc(-c2cnc3c(c2Cl)C2(CC2)CN3)c1F
7.41

GET pKi | system: HPK1 (Homo sapiens (Human)) | item: COc1cccc(F)c1-c1nccc(C(=O)Nc2cc(F)c3c(cnn3C)c2-c2cccc(CO)c2)n1
> 7.00

Recall the reported pKi of O=C1COCCN1c1cccc2c(-c3cnc4c(c3Cl)C3(CC3)CN4)c[nH]c12 when tested on HPK1 (Homo sapiens (Human)).
7.33

For HPK1 (Homo sapiens (Human)), give the measured pKi of the entry N#Cc1ccc2[nH]cc(-c3cnc4c(c3)C3(CC3)CN4)c2c1
7.76

Report its pKi with HPK1 (Homo sapiens (Human)) as the test system: CNC1CCc2cc(F)c(-c3cc4c(-c5ccc(N6CCN(C)CC6)cc5)n[nH]c4cn3)c(F)c2C1 (stereo not drawn)
≥ 7.00

Tell me pKi of CNCc1ccc(F)c(-c2cc3c(-c4cnn(C)c4)n[nH]c3cn2)c1OC when tested on HPK1 (Homo sapiens (Human)).
≥ 7.00

Lab note: HPK1 (Homo sapiens (Human)) assay, enter pKi for Cc1cccc(F)c1-c1ncc2[nH]nc(-c3ccc(N4CCCC(O)C4)cc3)c2n1 (stereo not drawn) here
≥ 7.00

Report pKi from HPK1 (Homo sapiens (Human)) testing of CN(c1cc(C#N)cc2c(-c3cnc4c(c3)C3(CC3)CN4)c[nH]c12)S(C)(=O)=O
7.83

Give pKi for this entry on HPK1 (Homo sapiens (Human)): Cc1c(N)cccc1-c1ccc2[nH]nc(-c3ccc(N4CCN(C)CC4)cc3)c2n1
≥ 7.00

Provide HPK1 (Homo sapiens (Human)) pKi reading for CN1CCN(c2ccc(-c3n[nH]c4cc(=O)n(-c5ncccc5F)cc34)cc2)CC1 .
≥ 7.00

Please report the measured pKi for Cc1c2c(cc(F)c1-c1ncc3[nH]nc(-c4ccc(N5CCN(C)CC5)nc4)c3n1)CCNC2 tested on HPK1 (Homo sapiens (Human)).
≥ 7.00

Fill in pKi for COC(=O)N1CCN(c2ccc(C(=O)Nc3n[nH]c4cnc(-c5c(F)cc(CNC(C)C)cc5F)cc34)c(F)c2)CC1 tested with HPK1 (Homo sapiens (Human)).
≥ 7.00

Please indicate recorded pKi of CN(CCO)C(=O)c1cccc(-c2cnc3c(c2)C2(CC2)CN3)c1F measured with HPK1 (Homo sapiens (Human)).
7.42

Quote pKi with test system HPK1 (Homo sapiens (Human)) for Cc1cccc(F)c1-c1ncc2[nH]nc(-c3ccc(N4CCNCC4)cc3)c2n1
≥ 7.00

Report value only: pKi, HPK1 (Homo sapiens (Human)), CN(C)C(=O)c1cc(-c2cnc3c(c2)C2(CCCC2)CN3)ccc1N
7.54

Write pKi of O=C1CCCCN1c1cccc(-c2cnc3c(c2Cl)C2(CC2)CN3)c1 ; system used: HPK1 (Homo sapiens (Human))
7.80

Please look at CN1CCN(c2ccc(-c3n[nH]c4cnc(-c5cccc(C(N)=O)c5F)nc34)cc2)CC1 and tell me its recorded pKi on HPK1 (Homo sapiens (Human)).
≥ 7.00

Find pKi for CN1CCN(c2ccc(-c3n[nH]c4ccc(-c5cnc6c(c5)CC(=O)N6)nc34)cc2)CC1 on HPK1 (Homo sapiens (Human)) and write it down.
≥ 7.00

Recall the reported pKi of Fc1ccccc1-c1ccc2[nH]nc(-c3cnn(C4CCNCC4)c3)c2n1 on HPK1 (Homo sapiens (Human)) and write it down.
6.30 to 7.00

Check HPK1 (Homo sapiens (Human)) data and give pKi for Nc1ccc(-c2cnc3c(c2Cl)C2(CC=CC2)CN3)cc1 .
6.90

Param request: pKi | system HPK1 (Homo sapiens (Human)) | item CCN(C(=O)c1cccc(-c2cnc3c(c2)C2(CC2)CN3)c1F)C1CCC1
7.47

Send back HPK1 (Homo sapiens (Human)) pKi of CNCc1cc(C)c(-c2cc3c(-c4ccc(C)cc4)n[nH]c3cc2C#N)c(F)c1 only.
≥ 7.00

Retrieve pKi on HPK1 (Homo sapiens (Human)); query CCCNc1ccc(C(=O)Nc2n[nH]c3cnc(-c4cnn(C)c4C)cc23)cc1
≥ 7.00

Report its pKi with HPK1 (Homo sapiens (Human)) as the test system: CNCc1cc(C)c(-c2cc3c(-c4cccc(N5CCN(C)CC5)n4)n[nH]c3cc2C#N)c(F)c1
≥ 7.00

For HPK1 (Homo sapiens (Human)), give pKi of the listed compound: O=C(c1cccc(-c2cnc3c(c2Cl)C2(CC2)CN3)c1F)N1CCNCC1
6.82

Check HPK1 (Homo sapiens (Human)) data and give pKi for COc1cc(NC(=O)CN2CCCC2)cc(F)c1-c1cc2c(-c3cnn(C)c3)n[nH]c2cn1 .
≥ 7.00

Give measured pKi for NC1CCc2cc(F)c(-c3ncc4[nH]nc(-c5ccc(N6CCOCC6)nc5)c4n3)c(F)c21 (stereo not drawn) (HPK1 (Homo sapiens (Human))).
≥ 7.00
